These data points were gathered from patent US20210246204A1.

- subject-of-test: T1, histidine-tagged human Siglec-7 (NovoProtein) (human, UniProt Q9Y286 19-353)
- T1 construct: Bought protein; also called recombinant human Siglec-7; recombinant Siglec-7; not shown: histidine tag
- assay-procedure: BLI, antibody captured
readout-label: kon (M⁻¹ s⁻¹)
Note: unit M⁻¹ s⁻¹ is implicit; provide only the numeric part.

Worked examples follow.
binder: S7AB-H8.5 (antibody, V domains shown) VH: QVQLVQSGAEVKKPGASVKVSCKASGYAFTEAWMNWVRQAPGQGLEWIGRIFPGYGHTNYAQKFQGRATLTEDTSTSTAYMELSSLRSEDTAVYYCARDYSDYYFDYWGQGTLVTVSS VL: DIQMTQSPSSLSASVGDRVTITCRGSQDINTYLNWYQQKPGKAPKLLIYYTSRLHSGVPSRFSGSGSGTDYTLTISSLQPEDFATYYCQQGNLLPWTFGQGTKLEIK
kon [M⁻¹ s⁻¹]: 116000

binder: S7AB-H8.28 (antibody, V domains shown) VH: QVQLVQSGAEVKKPGASVKVSCKASGYAFTGYWMNWVRQAPGQGLEWIGRIFPGLGHTNYAQKFQGRATLTEDTSTSTAYMELSSLRSEDTAVYYCARDYSDYYFDYWGQGTLVTVSS VL: DIQMTQSPSSLSASVGDRVTITCRASQDANTYLNWYQQKPGKAPKLLIYYTSRLHSGVPSRFSGSGSGTDYTLTISSLQPEDFATYYCQQGNLLPWTFGQGTKLEIK
kon [M⁻¹ s⁻¹]: 221000

binder: S7AB-H8.15 (antibody, V domains shown) VH: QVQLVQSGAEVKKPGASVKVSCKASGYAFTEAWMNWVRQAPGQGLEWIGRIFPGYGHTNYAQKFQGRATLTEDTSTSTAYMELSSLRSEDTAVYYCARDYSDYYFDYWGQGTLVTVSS VL: DIQMTQSPSSLSASVGDRVTITCRGSQDINTYLNWYQQKPGKAPKLLIYYTSRLHSGVPSRFSGSGSGTDYTLTISSLQPEDFATYYCQGGNTLPWTFGQGTKLEIK
kon [M⁻¹ s⁻¹]: 233000

binder: S7AB-H8.19 (antibody, V domains shown) VH: QVQLVQSGAEVKKPGASVKVSCKASGYAFTAAWMNWVRQAPGQGLEWIGRIFPGLGHTNYAQKFQGRATLTEDTSTSTAYMELSSLRSEDTAVYYCARDYSDYYFDYWGQGTLVTVSS VL: DIQMTQSPSSLSASVGDRVTITCRGSQDTNTYLNWYQQKPGKAPKLLIYYTSRLHSGVPSRFSGSGSGTDYTLTISSLQPEDFATYYCQQGNTLPWTFGQGTKLEIK
kon [M⁻¹ s⁻¹]: 125000

Now for another entry.
Task item: Hello, please tell me recorded kon for this one: S7AB-H8.10 (antibody, V domains shown) VH: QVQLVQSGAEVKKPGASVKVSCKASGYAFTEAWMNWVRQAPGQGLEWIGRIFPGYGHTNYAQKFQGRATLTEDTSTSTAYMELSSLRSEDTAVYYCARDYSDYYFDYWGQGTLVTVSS VL: DIQMTQSPSSLSASVGDRVTITCRGSQDINTYLNWYQQKPGKAPKLLIYYTSRLHSGVPSRFSGSGSGTDYTLTISSLQPEDFATYYCQQGNTKPWTFGQGTKLEIK
Reply: 50400
